B1: FAM189A2 (parent)
chain: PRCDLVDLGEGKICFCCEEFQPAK

- Variants of: B1
- EXPERIMENTAL_PROTOCOL: protein stability index of a GFP-peptide fusion (GPS, HEK-293T) (PSI 1-6); higher = more stable;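 further: lentivirally expressed fusions sorted by FACS into six bins by GFP to DsRed ratio, PSI derived from sequencing read proportions per bin multiplied by bin number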
- TEST_CONDITIONS: c terminus: a fixed tail appended
ASSAY_ENDPOINT: protein stability index
Respond using a number only.

# MUTATION, ASSAY_VALUE
measured = [
    ("C16S", 3.28),
]

Here's the next entry for you.
# input Would you kindly share the measured protein stability index for E19I ?
# output 1.55
